# Target Entity: Vascular endothelial growth factor receptor 1 (Homo sapiens, UniProt P17948)
# Sequence (P17948 whole entry): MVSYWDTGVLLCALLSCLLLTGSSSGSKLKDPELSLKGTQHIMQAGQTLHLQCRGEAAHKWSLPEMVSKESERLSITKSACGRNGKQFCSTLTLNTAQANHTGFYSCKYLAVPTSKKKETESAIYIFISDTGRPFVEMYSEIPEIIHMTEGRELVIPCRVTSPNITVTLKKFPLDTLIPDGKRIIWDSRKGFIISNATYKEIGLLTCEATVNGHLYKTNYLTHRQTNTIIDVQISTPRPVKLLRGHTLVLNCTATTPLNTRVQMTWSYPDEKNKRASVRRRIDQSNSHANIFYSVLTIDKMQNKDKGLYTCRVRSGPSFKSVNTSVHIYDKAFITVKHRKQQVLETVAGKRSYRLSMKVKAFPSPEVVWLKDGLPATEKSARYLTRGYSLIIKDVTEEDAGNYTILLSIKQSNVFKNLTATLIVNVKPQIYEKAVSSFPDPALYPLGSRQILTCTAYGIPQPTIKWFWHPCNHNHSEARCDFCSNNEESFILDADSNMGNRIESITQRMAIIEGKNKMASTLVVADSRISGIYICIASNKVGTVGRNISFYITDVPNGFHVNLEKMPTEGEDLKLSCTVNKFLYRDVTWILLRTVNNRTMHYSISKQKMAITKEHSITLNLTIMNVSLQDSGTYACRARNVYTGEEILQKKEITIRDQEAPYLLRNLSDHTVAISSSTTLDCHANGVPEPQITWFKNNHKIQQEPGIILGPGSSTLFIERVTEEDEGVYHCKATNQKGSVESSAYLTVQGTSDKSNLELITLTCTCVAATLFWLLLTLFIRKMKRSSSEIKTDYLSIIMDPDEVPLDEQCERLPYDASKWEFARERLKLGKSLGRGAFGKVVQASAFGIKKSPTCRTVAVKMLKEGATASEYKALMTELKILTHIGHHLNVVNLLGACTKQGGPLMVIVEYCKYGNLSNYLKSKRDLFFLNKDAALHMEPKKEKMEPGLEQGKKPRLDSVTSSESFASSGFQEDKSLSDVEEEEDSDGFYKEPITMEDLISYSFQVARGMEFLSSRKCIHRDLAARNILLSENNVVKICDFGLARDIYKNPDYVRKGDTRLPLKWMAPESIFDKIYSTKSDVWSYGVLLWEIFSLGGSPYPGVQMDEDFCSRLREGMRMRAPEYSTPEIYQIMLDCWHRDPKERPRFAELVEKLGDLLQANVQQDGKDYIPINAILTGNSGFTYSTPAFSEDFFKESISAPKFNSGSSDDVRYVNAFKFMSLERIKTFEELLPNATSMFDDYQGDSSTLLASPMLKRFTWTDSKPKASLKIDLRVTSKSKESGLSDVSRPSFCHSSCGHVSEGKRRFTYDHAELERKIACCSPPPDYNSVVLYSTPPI
# Experiment Description: Inhibition of recombinant human Flt-1 using poly (Glu,Tyr)4:1 as substrate after 60 mins by ELISA
Endpoint: IC50

1. Cn1cc(-c2cnc(Nc3cccc(Cn4nc(-c5cnn(C)c5)ccc4=O)c3)nc2)cn1	> 1000 nM

====

In this section we review reported IC50 values for a set of compounds.
# Experiment Description: Antiproliferative activity against human EBC1 cells after 72 hrs by SRB assay
# Details: EBC-1, 72 h
Endpoint: IC50 (nM)

1) Cn1cc(-c2cnc(Nc3cccc(Cn4nc(-c5cnn(CCO)c5)ccc4=O)c3)nc2)cn1	99.8
2) C[C@@H](Oc1cc(-c2cnn(C3CCNCC3)c2)cnc1N)c1c(Cl)ccc(F)c1Cl	19
3) Cn1cc(-c2ccc(=O)n(Cc3cccc(Nc4ncc(-c5cnn(CCO)c5)cn4)c3)n2)cn1	48.7
4) Cn1cc(-c2cnc(Nc3cccc(Cn4nc(-c5cccc(C#N)c5)ccc4=O)c3)nc2)cn1	108
5) CNC(=O)c1ccc(-c2ccc(=O)n(Cc3cccc(Nc4ncc(-c5cnn(C)c5)cn4)c3)n2)cc1F	31.3
6) Cn1cc(-c2cnc(Nc3cccc(Cn4nc(-c5ccc(Cl)c(C(F)(F)F)c5)ccc4=O)c3)nc2)cn1	65
7) Cn1cc(-c2cnc(Nc3cccc(Cn4nc(-c5ccc(S(C)(=O)=O)cc5)ccc4=O)c3)nc2)cn1	73.4
8) CC(C)n1cc(-c2cnc(Nc3cccc(Cn4nc(-c5cnn(C)c5)ccc4=O)c3)nc2)cn1	94.6
9) CN(C)C(=O)c1ccc(-c2ccc(=O)n(Cc3cccc(Nc4ncc(-c5cnn(C)c5)cn4)c3)n2)cc1F	102

All figures here come from ChEMBL document CHEMBL3758137.
